The origin of these recorded values is patent US8735609B2.

# Measured on: PKC purified from the rat brain
# Test name: PKC binding assay
# Condition: competitive inhibition of [3H]-PDBu binding; read-out: PKC Binding constant
Assay metric: Ki (nM)
Give bare numbers, in nM.

These recorded examples may help you get a feel for the data.
C=CCC1C[C@H]2C[C@H]3CCC[C@@H](C[C@@H](O)CC(=O)O[C@@H](CO)C[C@@H]4C/C(=C\C(=O)OC)[C@H](OC(=O)CCCCCCC)[C@@](O)(O4)C(C)(C)/C=C/[C@@H](O1)O2)O3 (stereo partly drawn) [Formula 22A] ... 0.67
CCCCCCCC(=O)OC1C(=CC(=O)OC)CC2CC(CO)OC(=O)CC(O)CC3CCCC(CC4COC(C=CC(C)(C)C1(O)O2)O4)O3 (stereo not drawn) [Formula 18B.1] ... 5.4

Attention now shifts to the item below.
C=CCC1C[C@H]2CCOCC[C@@H](O)CC(=O)O[C@@H](CO)C[C@@H]3C/C(=C\C(=O)OC)[C@H](OC(=O)CCCCCCC)[C@@](O)(O3)C(C)(C)/C=C/[C@@H](O1)O2 (stereo partly drawn) [Formula 20A] tested on PKC purified from the rat brain gave Ki: 2.6
